All figures here come from patent EP2886535A1.

Nombre de souris avec une parasitemia positive overview
# Test system: T. congolense
# experiment_description: In vivo curative and preventive activity in infected and monthly re-infected mice
# Design: species or system souris femelles swiss (CD1)
# condition_details: dose 0.1 mg/kg i.p., 1 mois, n=5
Hey, just send me the number, nothing else.

# count of solved cases: 3
>  <compound>
CC[n+]1c(-c2ccccc2)c2cc(N)ccc2c2ccc(N=NNc3cccc(C(=N)N)c3)cc21 [Isomère rouge]

>  <endpoint_result>
0

$$$$
>  <compound>
CC[n+]1c(-c2ccccc2)c2cc(N/N=N/c3cccc(C(=N)N)c3)ccc2c2ccc(N)cc21 [Isométamidium pur]

>  <endpoint_result>
0

$$$$
>  <compound>
CC[n+]1c(-c2ccccc2)c2cc(N=NNc3cccc(C(=N)N)c3)ccc2c2ccc(N=NNc3cccc(C(=N)N)c3)cc21 [Composé disubstitué pur]

>  <endpoint_result>
5

$$$$

Alright, here's another compound for you.
# value of Nombre de souris avec une parasitemia positive, T. congolense, item CC[n+]1c(-c2ccccc2)c2c(N=Nc3cccc(C(=N)N)c3)c(N)ccc2c2ccc(N)cc21 [Isomère bleu, reference compound] = 0
